- Tested on: neutrophils
- testSummary: Chemotaxis of human neutrophils (Boyden chamber, N-formyl-methionyl-leucyl-phenylalanine in lower part)
- Type: cell-based
- conditionContext: Neutrophil, 1 μg/ml, 2×10^-8 M N-formyl-methionyl-leucyl-phenylalanine, 1 to 3 hours at 37° C., relative to control = 100%
- Experimental: Neutrophils were separated from human peripheral blood and the effect of various tocopherylglycosides on random migration and chemotaxis of the neutrophils were measured by using Boyden chambers. Tocopherol or a tocopheryl glycoside dissolved in 1% dimethylsulfoxide was added to a suspension containing 2.5×10^6 cells/ml of neutrophils so that a concentration of tocopherol or the tocopheryl glycoside was 1 μg/ml. […]
endpointName: activity at 1 µg/mL (%)
Quick note: give the figure in %, leave out the unit.

[Q] activity at 1 µg/mL lookup needed for Cc1c(C)c2c(c(C)c1OC1O[C@H](CO)[C@@H](O)[C@H](O)[C@H]1O)CCC(C)(CCCC(C)CCCC(C)CCCC(C)C)O2 (mixture of isomers) [dl-α-Tocopherylglucoside, dl-α-tocopherylglucoside] , thanks.
[A] 140

[Q] activity at 1 µg/mL lookup needed for Cc1c(C)c2c(c(C)c1O[C@@H]1O[C@H](CO)[C@@H](O)[C@H](O)[C@@H]1O)CCC(C)(CCCC(C)CCCC(C)CCCC(C)C)O2 (mixture of isomers) [dl-α-Tocopherylmannoside] , thanks.
[A] 168

[Q] activity at 1 µg/mL lookup needed for Cc1c(C)c2c(c(C)c1OC1O[C@H](CO)[C@H](O)[C@H](O)[C@H]1O)CCC(C)(CCCC(C)CCCC(C)CCCC(C)C)O2 (mixture of isomers) [dl-α-Tocopherylgalactoside, reference compound] , thanks.
[A] 85

[Q] activity at 1 µg/mL lookup needed for Cc1c(C)c2c(c(C)c1O)CCC(C)(CCCC(C)CCCC(C)CCCC(C)C)O2 (racemic) [dl-α-Tocopherol, reference compound] , thanks.
[A] 94

---

- Tested on: neutrophils
- testSummary: Random migration of human neutrophils (Boyden chamber, PBS in lower part)
- Format: cell-based
- conditionContext: Neutrophil, 1 μg/ml, 15 min preincubation, 1 to 3 hours at 37° C., relative to control = 100%, read-out: random motoricity
Exercise: state measured activity at 1 µg/mL for each of the compounds provided.

[Q] activity at 1 µg/mL lookup needed for Cc1c(C)c2c(c(C)c1O)CCC(C)(CCCC(C)CCCC(C)CCCC(C)C)O2 (racemic) [dl-α-Tocopherol, reference compound] , thanks.
[A] 82%

[Q] activity at 1 µg/mL lookup needed for Cc1c(C)c2c(c(C)c1OC1O[C@H](CO)[C@H](O)[C@H](O)[C@H]1O)CCC(C)(CCCC(C)CCCC(C)CCCC(C)C)O2 (mixture of isomers) [dl-α-Tocopherylgalactoside, reference compound] , thanks.
[A] 64%

[Q] activity at 1 µg/mL lookup needed for Cc1c(C)c2c(c(C)c1OC1O[C@H](CO)[C@@H](O)[C@H](O)[C@H]1O)CCC(C)(CCCC(C)CCCC(C)CCCC(C)C)O2 (mixture of isomers) [dl-α-Tocopherylglucoside, dl-α-tocopherylglucoside] , thanks.
[A] 98%

[Q] activity at 1 µg/mL lookup needed for Cc1c(C)c2c(c(C)c1O[C@@H]1O[C@H](CO)[C@@H](O)[C@H](O)[C@@H]1O)CCC(C)(CCCC(C)CCCC(C)CCCC(C)C)O2 (mixture of isomers) [dl-α-Tocopherylmannoside] , thanks.
[A] 71%
